- STUDY_SYSTEM: Collagenase 3 (Homo sapiens)
- ASSAY_PROCEDURE: NVS_ENZ_hMMP13: NovaScreen (NVS) Enzymatic Assay for human Matrix Metalloproteinase-13 (MMP13) (AID 2283182)
Records with an inconclusive call do not appear. Activity calls are given as the source filed them. The calls were made as follows: active = hit-call score of the fitted dose curve at least 0.9, where 1 is the maximum; inconclusive = response in the unintended direction; inactive = score below 0.9.
Kindly supply the reported AC50 values for the records listed here.

The compound identified as CCc1cc(C2=C(C(=O)O)N(c3ccccc3C(F)(F)F)S(=O)(=O)c3ccccc32)cc2c1OCO2 registered its AC50 at 29.6 µM (active)

The compound identified as Nc1nc(=S)c2[nH]cnc2[nH]1 registered its AC50 at 27.1 µM (active)

The compound identified as CC(C)(C)c1ccccc1 registered its AC50 at 19.4 µM (active)

The compound identified as O=C(O)c1[nH]n(-c2ccc(S(=O)(=O)O)cc2)c(=O)c1N=Nc1ccc(S(=O)(=O)O)cc1 registered its AC50 at 23.6 µM (active)

The compound identified as O=C1c2c(O)cccc2Cc2cccc(O)c21 registered its AC50 at 0.671 µM (active)

###

- Read-out: matrix metalloproteinase-10 (MMP10), MMP10 (gene 4319)
- ASSAY_PROCEDURE: LTEA_HepaRG_MMP10: Life Technologies and Expression Analysis (LTEA) Assay for matrix metalloproteinase-10 (MMP10) using HepaRG (AID 2283517)
- REPORTED_CONDITIONS: mRNA level, 48 h; actives raise or lower the signal
Calls of active or inactive are those of the source. How the source made its calls: active means hit-call score of the fitted dose curve at least 0.9, where 1 is the maximum; inactive means score below 0.9.
RESULT_TYPE: AC50

Observe how each entry below is paired with its result.
COMPOUND: O=C1OC(c2ccc(O)cc2)(c2ccc(O)cc2)c2ccccc21
RESULT_TYPE: AC50
EXPERIMENTAL_RESULT: inactive
//
COMPOUND: C=CCc1ccc(OC)c(OC)c1
RESULT_TYPE: AC50
EXPERIMENTAL_RESULT: inactive
//
COMPOUND: Cc1ccc(-c2cc(C(F)(F)F)nn2-c2ccc(S(N)(=O)=O)cc2)cc1
RESULT_TYPE: AC50
EXPERIMENTAL_RESULT: inactive
//
COMPOUND: CC(=O)[C@@]1(O)CC[C@H]2[C@@H]3CCC4=CC(=O)CC[C@]4(C)[C@H]3CC[C@@]21C
RESULT_TYPE: AC50
EXPERIMENTAL_RESULT: inactive
//
COMPOUND: CCN(CC)CCOc1ccc(C(=C(Cl)c2ccccc2)c2ccccc2)cc1
RESULT_TYPE: AC50
EXPERIMENTAL_RESULT: 28.8 µM (active)

The compound identified as CN(C)CCCN1c2ccccc2Sc2ccc(Cl)cc21 registered its AC50 at 85.1 µM (active)

The compound identified as CCc1nc(N)nc(N)c1-c1ccc(Cl)cc1 registered its AC50 at inactive

The compound identified as CN(C)C(=O)NC1(c2ccccc2)CCN(CC[C@@]2(c3ccc(F)c(F)c3)CN(C(=O)c3ccccc3)CCO2)CC1 registered its AC50 at inactive

###

- STUDY_SYSTEM: bovine Gamma-Aminobutyric Acid Type A Receptor Agonist (GABAR Agonist), GABRA1 (gene 780973) (UniProt P08219)
- Sequence (P08219 whole entry, looked up): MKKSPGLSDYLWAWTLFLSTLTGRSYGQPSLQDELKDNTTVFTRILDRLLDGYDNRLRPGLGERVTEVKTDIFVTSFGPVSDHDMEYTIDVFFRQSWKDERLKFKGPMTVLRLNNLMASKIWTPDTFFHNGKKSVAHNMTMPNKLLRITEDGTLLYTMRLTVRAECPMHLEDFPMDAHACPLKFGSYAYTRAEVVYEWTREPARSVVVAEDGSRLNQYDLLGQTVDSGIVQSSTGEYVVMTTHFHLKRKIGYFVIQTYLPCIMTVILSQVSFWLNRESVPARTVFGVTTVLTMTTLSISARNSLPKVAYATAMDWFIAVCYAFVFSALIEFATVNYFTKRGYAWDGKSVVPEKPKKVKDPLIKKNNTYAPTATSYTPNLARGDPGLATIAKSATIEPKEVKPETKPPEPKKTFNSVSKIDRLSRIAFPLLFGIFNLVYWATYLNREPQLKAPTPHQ
- ASSAY_PROCEDURE: NVS_LGIC_bGABAR_Agonist: NovaScreen (NVS) Ligand-Gated Ion Channel Assay for bovine Gamma-Aminobutyric Acid Type A Receptor Agonist (GABAR Agonist) (AID 2283338)
- Procedure: NVS_LGIC_bGABAR_Agonist is a biochemical, single-readout assay that uses extracted gene-proteins from Bovine cerebellar membranes in a tissue-based cell-free assay. Measurements were taken 1 hour after chemical dosing in a 48-well plate.NVS_LGIC_bGABAR_Agonist is one of one assay component(s) measured or calculated from the NVS_LGIC_bGABAR_Agonist assay. […] Furthermore, this assay endpoint can be referred to as a primary readout, because the performed assay has only produced 1 assay endpoint. […]
Records with an inconclusive call do not appear. The source made the active and inactive calls. Rule for the calls: active = hit-call score of the fitted dose curve at least 0.9, where 1 is the maximum; inconclusive = response in the unintended direction; inactive = score below 0.9.
Pick from active, inactive when you respond.

Query string: How did this test come out for Cc1c(C)c2c(c(C)c1O)CCC(C)(COc1ccc(CC3SC(=O)NC3=O)cc1)O2 (centres undefined) ?
Result string: inactive

Query string: How did this test come out for N[C@@H](Cc1c[nH]c2ccccc12)C(=O)O ?
Result string: inactive

Query string: How did this test come out for CSc1ccc(Oc2ccc(S(N)(=O)=O)cc2CN(C)C)cc1C ?
Result string: active

Query string: How did this test come out for CCc1nc(N)nc(N)c1-c1ccc(Cl)cc1 ?
Result string: active
